assay: Quantitative High-Throughput drug screen in 47 multiple myeloma cell lines against the NCATS MIPE library collection: EJM_DSMZ cell viability assay (AID 1918926; further: nearly all actives have a fitted effect of over 30% in size); conditions: EJM myeloma cell viability, CellTiter-Glo ATP, 48 h; series mostly up to 45.8 µM
Inconclusive results are not listed. The source made the active and inactive calls. The call rests on the fitted dose curve; in most records, active means well fitted cell-killing curve with a large enough effect; inconclusive means small, poorly fitted or top-dose-only effect, or effect the other way; inactive means no such curve, though single readings can be large or run the other way.
Respond with a class label; see active, inactive

{"test.smiles": "CC(C)[C@H](C(=O)Nc1ccc(C(=O)NO)cc1)c1ccccc1", "group.label": "active"}

Data request: Dear all, I need the recorded test outcome for "CC(C)c1ccc(Cn2ccc3c4c(N)nc(NC5CC5)nc4ccc32)cc1" , thank you.
Data returned: active

Data request: Please share the test call associated with "CC(C)Nc1cc(C(F)(F)F)cc2nc(NC(=O)c3cccnc3)nn12" .
Data returned: active

Data request: Hi, do you know how "CC(C)(C)c1cnc(CSc2cnc(NC(=O)C3CCNCC3)s2)o1" came out in this test?
Data returned: active

Data request: Fill in: this test's call for "O=C(c1cncc(Br)c1)N1CCC(N2CCCC2)CC1" is ___
Data returned: inactive

Data request: What classification did "Cc1cc(Nc2cc(CN3CCOCC3)c3nc(C)c(Cc4ccc(Cl)cc4F)n3n2)n[nH]1" end up with in this test?
Data returned: active

Data request: How did this test come out for "Cc1nc(Nc2n[nH]c3c2CN(C(=O)N[C@H](CN(C)C)c2ccccc2)C3(C)C)c2sccc2n1" ?
Data returned: active

Data request: In this assay, the call recorded for "Nc1cccc(-c2cc3c(Oc4cccc(O)c4)ncnc3[nH]2)c1" was what?
Data returned: active

Data request: Hi, do you know how "CCc1c2c(nc3ccc(O)cc13)-c1cc3c(c(=O)n1C2)COC(=O)[C@]3(O)CC" came out in this test?
Data returned: active

Data request: How did this test come out for "CC(C)(C)c1cc(C(C)(C)C)c(NC(=O)c2c[nH]c3ccccc3c2=O)cc1O" ?
Data returned: inactive

----------
system: 7G8; experiment: qHTS profiling for inhibitors of Plasmodium falciparum proliferation (AID 504749); further: nearly all actives have a fitted effect of over 60% in size; conditions: P. falciparum in erythrocytes, SYBR Green DNA, 72 h; series mostly up to 28.7 µM
Records with an inconclusive call do not appear. The source made the active and inactive calls. Calls follow the shape of the dose curve; as a rule, active = well fitted inhibition curve with a large enough effect; inconclusive = small, poorly fitted or top-dose-only effect; inactive = flat fitted curve, though single readings scatter.
Assign a class; possible classes are yes (1) for active, no (0) for inactive

{"compound": "COC(=O)C[C@](O)(CCCC(C)(C)O)C(=O)O[C@@H]1C(OC)=C[C@]23CCCN2CCc2cc4c(cc2[C@H]13)OCO4", "group.label": "yes (1)"}
{"compound": "CN1c2cc(O)c(N=NC(N)=O)cc2CC1S(=O)(=O)O (centres undefined)", "group.label": "no (0)"}

Data request: Look up the recorded call for "CCC1=C[C@@H]2CN(C1)Cc1c([nH]c3ccccc13)[C@@](C(=O)OC)(c1cc3c(cc1OC)N(C)[C@@H]1[C@@](O)(C(=O)OC)[C@H](OC(C)=O)[C@]4(CC)C=CCN5CC[C@]31[C@@H]54)C2" in this test.
Data returned: yes (1)

Data request: Fill in: this test's call for "COc1cc(C(=O)NS(=O)(=O)c2ccccc2C)ccc1Cc1cn(C)c2ccc(NC(=O)OC3CCCC3)cc12" is ___
Data returned: yes (1)

----------
test: qHTS profiling of the MIPE4 collection as inhibitors of Plasmodium falciparum (DD2) proliferation (Rep 2) (AID 743346); settings: P. falciparum Dd2 in erythrocytes, SYBR Green DNA, 72 h; at 28.5 µM (top of the series) unless noted
Use parasite growth, % of control (lower = inhibition) to assign classes; range list: low bracket = under 10%, middle bracket = from 10% up to 20%, high bracket = 20% and over

Data request: Bin? "Cc1ccc(C(N)=O)cc1Nc1nccc(-c2cn(C(C)C)c3cnccc23)n1"
Data returned: low bracket

Data request: Category lookup for the molecule "Cc1cc(Nc2ncnc3ccc(-c4ccc(CNCCS(C)(=O)=O)o4)cc23)ccc1Oc1ccn2ncnc2c1"
Data returned: low bracket

Data request: The entry to classify is "CCC(=C(c1ccccc1)c1ccc(OCCN(C)C)cc1)c1ccccc1" ; which class holds it?
Data returned: high bracket

Data request: Input "C1Cc2[nH]nc(-c3nn[nH]n3)c2C1" ; output its category
Data returned: high bracket

Data request: Consider "CC(C)c1ccccc1Cc1cc(C(=O)Nc2ccc(S(=O)(=O)c3ccccc3C(C)(C)C)cc2)c(O)c(O)c1O" . To which parasite growth, % of control (lower = inhibition) class does it belong?
Data returned: middle bracket
